B1: Gamma-crystallin D, residues 90 to 170; numbered along this chain, P07320 (parent)
chain: IRLYEREDYRGQMIEFTEDCSCLQDRFRFNEIHSLNVLEGSWVLYELSNYRGRQYLLMPGDYRRYQDWGATNARVGSLRRV

variants of: B1; test: abundance fitness (aPCA) (normalised: wild type 0, dead -1); higher = more abundant; growth selection in yeast, the domain comes from the species named; details: Homo sapiens
Quick rule for you: abundance fitness at 0.009 or higher means condition met, lower means condition not met.

# check: abundance fitness of `S34T` is greater than or equal to 0.009
condition not met

# check: abundance fitness of `D25L` is greater than or equal to 0.009
condition met

# check: abundance fitness of `I14A` is greater than or equal to 0.009
condition not met

# check: abundance fitness of `E46G` is greater than or equal to 0.009
condition not met

# check: abundance fitness of `I32N` is greater than or equal to 0.009
condition not met

# check: abundance fitness of `R53P` is greater than or equal to 0.009
condition met

# check: abundance fitness of `F16K` is greater than or equal to 0.009
condition not met

# check: abundance fitness of `L47H` is greater than or equal to 0.009
condition not met

# check: abundance fitness of `N30W` is greater than or equal to 0.009
condition not met

# check: abundance fitness of `L47A` is greater than or equal to 0.009
condition not met

# check: abundance fitness of `N36D` is greater than or equal to 0.009
condition not met

# check: abundance fitness of `M13G` is greater than or equal to 0.009
condition met

Values compiled from the Human Domainome abundance scans (Beltran et al. 2025).
